Biological target: Human Arginase 2 (Homo sapiens)
Sequence (P78540 23-354): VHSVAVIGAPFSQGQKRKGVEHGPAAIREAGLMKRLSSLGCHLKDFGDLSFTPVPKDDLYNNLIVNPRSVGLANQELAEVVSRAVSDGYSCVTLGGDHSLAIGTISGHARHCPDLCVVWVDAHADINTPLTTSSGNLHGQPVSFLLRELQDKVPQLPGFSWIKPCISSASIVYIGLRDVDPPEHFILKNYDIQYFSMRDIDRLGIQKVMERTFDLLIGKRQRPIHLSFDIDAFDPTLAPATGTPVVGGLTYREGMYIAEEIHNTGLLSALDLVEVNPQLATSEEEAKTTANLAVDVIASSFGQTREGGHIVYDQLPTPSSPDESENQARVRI
Assay: Human Arginase 2 enzyme inhibition (thioarginine/DTNB absorbance at 412 nm)
Conditions: recombinant enzyme from E. coli, 5 nM; 30 min pre-incubation, 60 min reaction
property: IC50 (nM)

compound	assayed system	output unit	endpoint value
CC(C)[C@H](N)C(=O)N[C@H]1CCN[C@@](CCCCB(O)O)(C(=O)O)C1	Human Arginase 2 (Homo sapiens)	nM	24
C[C@H](N)C(=O)N[C@H]1CCN[C@@](CCCCB(O)O)(C(=O)O)C1	Human Arginase 2 (Homo sapiens)	nM	27
CC[C@H](N)C(=O)N[C@H]1CCN[C@@](CCCCB(O)O)(C(=O)O)C1	Human Arginase 2 (Homo sapiens)	nM	21

I = CC(C)[C@@H](N)C(=O)N[C@H]1CCN[C@@](CCCCB(O)O)(C(=O)O)C1
II = N[C@@H]1CCN[C@](CCCCB(O)O)(C(=O)O)C1 (single isomer, unassigned)
III = CC(C)(C)[C@H](N)C(=O)N[C@H]1CCN[C@@](CCCCB(O)O)(C(=O)O)C1
IV = N[C@H]1CCN[C@](CCCCB(O)O)(C(=O)O)C1 (single isomer, unassigned; enantiomer 1) [Example 10]
V = NCC(=O)N[C@H]1CCN[C@@](CCCCB(O)O)(C(=O)O)C1
Exercise: Arrange these 5 compounds in increasing order of IC50. // respond by listing labels in the order requested
Solution: III, V, I, II, IV
(III: 24 nM, V: 59 nM, I: 180 nM, II: 2540 nM, IV: 53100 nM)
